# Tested on: GENE-TOX genotoxicity assays, various organisms and cells
# ASSAY_DETAILS: GENE-TOX mutagenicity studies
# CONDITION_INFO: Species/Cell Type: Glycine max (soybean); Assay Type: Gene mutation; Assay Code: GLM+; Evaluation Type: Evaluation A (Pre-1980)
Active and inactive are the calls of the source. The rule behind the calls is not given here. Numbered stars: 1 amine (or outer) side, 2 acyl side, 3 side chain; on linkers, the order of the positions; unused ones are H or OH. Bridge positions count the residues as written; N and C are the ends. Square brackets hold non-standard residues; d marks the D form. Peptide text beside a SMILES is read from it. I, II: the chains in the order shown. Actinocin(9to1) = Cc1c2oc3c(C)ccc(C(=O)[*:1])c3nc-2c(C(=O)[*:2])c(N)c1=O; NMeV = CN[C@H](C(=O)O)C(C)C; Sar = CNCC(=O)O

[
  {
    "MOLECULE": "COc1cc2c(c(OC)c1OC)-c1ccc(OC)c(=O)cc1[C@@H](NC(C)=O)CC2",
    "SYSTEM_UNDER_TEST": "GENE-TOX genotoxicity assays, various organisms and cells",
    "mutagenic call": "active; positive"
  },
  {
    "MOLECULE": "O=c1[nH]c(=O)n([C@H]2C[C@H](O)[C@@H](CO)O2)cc1F",
    "SYSTEM_UNDER_TEST": "GENE-TOX genotoxicity assays, various organisms and cells",
    "mutagenic call": "active; positive"
  },
  {
    "MOLECULE": "C1OC1C1CO1 (configuration not stated)",
    "SYSTEM_UNDER_TEST": "GENE-TOX genotoxicity assays, various organisms and cells",
    "mutagenic call": "active; positive"
  },
  {
    "MOLECULE": "O=C1C=C(N2CC2)C(=O)C(N2CC2)=C1N1CC1",
    "SYSTEM_UNDER_TEST": "GENE-TOX genotoxicity assays, various organisms and cells",
    "mutagenic call": "active; positive"
  },
  {
    "MOLECULE": "CCCCS(=O)(=O)OC",
    "SYSTEM_UNDER_TEST": "GENE-TOX genotoxicity assays, various organisms and cells",
    "mutagenic call": "active; positive"
  },
  {
    "MOLECULE": "Nc1ccc(/C=C/c2ccc([N+](=O)[O-])o2)nn1",
    "SYSTEM_UNDER_TEST": "GENE-TOX genotoxicity assays, various organisms and cells",
    "mutagenic call": "active; positive"
  },
  {
    "MOLECULE": "CCS(=O)(=O)OC",
    "SYSTEM_UNDER_TEST": "GENE-TOX genotoxicity assays, various organisms and cells",
    "mutagenic call": "active; positive"
  },
  {
    "MOLECULE": "CN(N=O)C(N)=O",
    "SYSTEM_UNDER_TEST": "GENE-TOX genotoxicity assays, various organisms and cells",
    "mutagenic call": "active; positive"
  },
  {
    "MOLECULE": "[N-]=[N+]=[N-]",
    "SYSTEM_UNDER_TEST": "GENE-TOX genotoxicity assays, various organisms and cells",
    "mutagenic call": "active; positive"
  },
  {
    "MOLECULE": "COS(C)(=O)=O",
    "SYSTEM_UNDER_TEST": "GENE-TOX genotoxicity assays, various organisms and cells",
    "mutagenic call": "active; positive"
  },
  {
    "MOLECULE": "Cc1c2oc3c(C)ccc(C(=O)N[C@@H]4C(=O)N[C@H](C(C)C)C(=O)N5CCC[C@H]5C(=O)N(C)CC(=O)N(C)[C@@H](C(C)C)C(=O)O[C@@H]4C)c3nc-2c(C(=O)N[C@@H]2C(=O)N[C@H](C(C)C)C(=O)N3CCC[C@H]3C(=O)N(C)CC(=O)N(C)[C@@H](C(C)C)C(=O)O[C@@H]2C)c(N)c1=O (I: T[dV]P[Sar][NMeV] / II: T[dV]P[Sar][NMeV]; ester I:1-I:C, II:1-II:C; linker I:N-II:N via Actinocin(9to1))",
    "SYSTEM_UNDER_TEST": "GENE-TOX genotoxicity assays, various organisms and cells",
    "mutagenic call": "active; positive"
  },
  {
    "MOLECULE": "CCOS(C)(=O)=O",
    "SYSTEM_UNDER_TEST": "GENE-TOX genotoxicity assays, various organisms and cells",
    "mutagenic call": "active; positive"
  }
]
